As shown below, each of these molecules has a reported IC50 value.
# tested_target: IDO1 (Homo sapiens, UniProt P14902)
# Sequence (P14902 whole entry): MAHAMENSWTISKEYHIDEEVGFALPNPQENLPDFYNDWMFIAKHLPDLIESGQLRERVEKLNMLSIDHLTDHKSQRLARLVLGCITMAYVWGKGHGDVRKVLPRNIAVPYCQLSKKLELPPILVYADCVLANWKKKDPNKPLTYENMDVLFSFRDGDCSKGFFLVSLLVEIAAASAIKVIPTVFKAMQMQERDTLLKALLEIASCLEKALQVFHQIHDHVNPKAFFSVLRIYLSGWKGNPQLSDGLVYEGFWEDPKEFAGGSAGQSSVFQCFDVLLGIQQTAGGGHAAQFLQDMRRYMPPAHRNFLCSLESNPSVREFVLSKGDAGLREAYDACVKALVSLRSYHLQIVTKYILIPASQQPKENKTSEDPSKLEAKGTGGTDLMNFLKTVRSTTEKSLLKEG
# test_protocol: IDO1 Human Whole Blood Assay
# Assay type: cell-based
# settings: LPS and IFNγ 100 ng/mL, 18 h, kynurenine by LC/MS/MS

| test_smiles | unit_name | IC50 |
| --- | --- | --- |
| Cc1cc(C)c2[nH]c(C3(c4ccc(NC(=O)c5cccc(Cl)c5)nc4)CCC3)nc2c1 | µM | 0.493 |
| O=C(Nc1ccc(C2(c3nc4cccc(F)c4[nH]3)CCC2)cn1)c1cccc(Cl)c1 | µM | 0.691 |
| N#Cc1cccc(C(=O)Nc2ccc(C3(c4nc5cc(Cl)ccc5[nH]4)CCC3)cn2)c1 | µM | 0.312 |
| O=C(Nc1ccc(C2(c3nc4ncc(C(F)(F)F)cc4[nH]3)CCC2)cn1)c1cccc(Cl)c1 | µM | 0.273 |
| N#Cc1cccc(C(=O)Nc2ccc(C3(c4nc5cccc(CCO)c5[nH]4)CCC3)cn2)c1 | µM | 3.29 |
| Cc1ccc2nc(C3(c4ccc(NC(=O)c5cccc(Cl)c5)nc4)CCC3)[nH]c2c1 | µM | 0.125 |
| N#Cc1cnc2nc(C3(c4ccc(NC(=O)c5cccc(Cl)c5)nc4)CCC3)[nH]c2c1 | µM | 0.387 |
| N#Cc1cccc(C(=O)Nc2ccc(C3(c4nc5cc(C(F)(F)F)cnc5[nH]4)CCC3)cn2)c1 | µM | 2.29 |

----------
# tested_target: IDO1 (Homo sapiens, UniProt P14902)
# test_protocol: IDO1 Human Whole Blood Assay
# Type: cell-based
# settings: LPS and IFNγ 100 ng/mL, 18 h, kynurenine by LC/MS/MS
Note to self: IC50 under 800 nM means label 1, ties and anything higher get label 0.

| test_smiles | assigned_class |
| --- | --- |
| O=C(Nc1ccc(C2(c3nc4cc(F)c(F)cc4[nH]3)CCC2)cn1)c1cccc(Cl)c1 | label 0 |
| Cc1ccc2nc(C3(c4ccc(NC(=O)c5cccc(Cl)c5)nc4)CCC3)[nH]c2c1C | label 1 |
| O=C(Nc1ccc(C2(c3nc4ccccc4[nH]3)CCC2)cn1)c1cccc(Cl)c1 | label 1 |
| O=C(Nc1ccc(C2(c3nc4ccc(C(F)(F)F)cc4[nH]3)CCC2)cn1)c1cccc(Cl)c1 | label 1 |
| O=C(Nc1ccc(C2(c3nc4ccc(OC(F)F)cc4[nH]3)CCC2)cn1)c1cccc(Cl)c1 | label 0 |
| O=C(Nc1ccc(C2(c3nc4ccc(Cl)cc4[nH]3)CCC2)cn1)c1cccc(Cl)c1 | label 1 |
| O=C(Nc1ccc(C2(c3nc4cccc(CCCO)c4[nH]3)CCC2)cn1)c1cccc(Cl)c1 | label 1 |
| N#Cc1cccc(C(=O)Nc2ccc(C3(c4nc5cccc(C(=O)N6CCC(O)CC6)c5[nH]4)CCC3)cn2)c1 | label 1 |
| Cc1cc2nc(C3(c4ccc(NC(=O)c5cccc(Cl)c5)nc4)CCC3)[nH]c2cc1F | label 1 |
| N#Cc1cccc(C(=O)Nc2ccc(C3(c4nc5cccc(C(=O)N6CCCC6)c5[nH]4)CCC3)cn2)c1 | label 1 |
| N#Cc1cccc(C(=O)Nc2ccc(C3(c4nc5ccccc5[nH]4)CCC3)nc2)c1 | label 0 |
| O=C(Nc1ccc(C2(c3nc4ncc(Br)cc4[nH]3)CCC2)cn1)c1cccc(Cl)c1 | label 1 |
| O=C(Nc1ccc(C2(c3nc4cccc(CO)c4[nH]3)CCC2)cn1)c1cccc(Cl)c1 | label 0 |
| O=C(Nc1ccc(C2(c3nc4cc(F)cc(F)c4[nH]3)CCC2)cn1)c1cccc(Cl)c1 | label 0 |
| Cc1cc(Cl)cc2nc(C3(c4ccc(NC(=O)c5cccc(Cl)c5)nc4)CCC3)[nH]c12 | label 1 |
| N#Cc1cccc(C(=O)Nc2ccc(C3(c4nc5ncc(C(F)(F)F)cc5[nH]4)CCC3)nc2)c1 | label 0 |
| N#Cc1cccc(C(=O)Nc2ccc(C3(c4nc5cc(C#N)ccc5[nH]4)CCC3)cn2)c1 | label 0 |
| O=C(O)Cc1cccc2nc(C3(c4ccc(NC(=O)c5cccc(Cl)c5)nc4)CCC3)[nH]c12 | label 0 |
